- assay_system: UniProtKB P35968
- Sequence (P35968 whole entry): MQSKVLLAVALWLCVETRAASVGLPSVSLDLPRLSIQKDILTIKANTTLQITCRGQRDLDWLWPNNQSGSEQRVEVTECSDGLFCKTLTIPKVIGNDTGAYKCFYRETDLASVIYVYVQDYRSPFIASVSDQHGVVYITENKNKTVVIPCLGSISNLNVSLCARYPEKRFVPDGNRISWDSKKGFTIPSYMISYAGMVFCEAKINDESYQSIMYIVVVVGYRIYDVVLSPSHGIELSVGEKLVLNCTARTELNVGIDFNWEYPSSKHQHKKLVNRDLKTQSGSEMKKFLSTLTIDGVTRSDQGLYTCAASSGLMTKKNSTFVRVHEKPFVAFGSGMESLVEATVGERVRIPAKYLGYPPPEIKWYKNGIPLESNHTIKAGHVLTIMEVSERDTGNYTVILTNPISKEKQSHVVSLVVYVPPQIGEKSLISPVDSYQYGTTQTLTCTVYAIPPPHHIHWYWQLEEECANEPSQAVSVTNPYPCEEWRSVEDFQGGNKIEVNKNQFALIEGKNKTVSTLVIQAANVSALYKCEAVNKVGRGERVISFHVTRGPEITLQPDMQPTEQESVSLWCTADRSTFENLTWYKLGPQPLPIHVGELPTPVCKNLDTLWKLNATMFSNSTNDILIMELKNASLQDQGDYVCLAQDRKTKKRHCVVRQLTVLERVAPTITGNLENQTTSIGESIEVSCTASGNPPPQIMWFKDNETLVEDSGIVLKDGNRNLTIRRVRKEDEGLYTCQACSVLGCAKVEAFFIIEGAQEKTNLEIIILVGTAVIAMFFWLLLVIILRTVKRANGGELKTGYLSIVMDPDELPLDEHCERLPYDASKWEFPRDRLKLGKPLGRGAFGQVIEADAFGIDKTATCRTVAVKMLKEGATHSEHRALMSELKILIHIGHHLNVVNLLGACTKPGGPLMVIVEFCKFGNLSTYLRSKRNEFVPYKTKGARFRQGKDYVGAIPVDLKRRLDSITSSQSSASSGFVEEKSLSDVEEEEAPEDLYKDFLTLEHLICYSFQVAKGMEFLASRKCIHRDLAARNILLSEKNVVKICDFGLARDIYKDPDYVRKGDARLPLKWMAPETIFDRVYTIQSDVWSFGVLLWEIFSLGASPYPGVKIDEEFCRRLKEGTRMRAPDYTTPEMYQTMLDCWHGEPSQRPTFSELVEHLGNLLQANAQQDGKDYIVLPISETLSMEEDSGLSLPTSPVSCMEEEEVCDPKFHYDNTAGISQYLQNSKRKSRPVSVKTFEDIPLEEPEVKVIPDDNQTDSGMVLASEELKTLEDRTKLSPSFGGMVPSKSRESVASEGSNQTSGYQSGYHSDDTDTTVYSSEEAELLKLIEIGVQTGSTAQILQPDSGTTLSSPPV
- protocol_description: Inhibition of human recombinant VEGF-R2 expressed in Sf9 cells using poly(E,Y)4:1 as substrate after 80 mins by scintillation counting

chemical_structure: CC(C)n1c2c(c3c1-c1ccccc1C3=O)C(=O)CCC2
units_label: nM
lt_gt_eq: >
IC50: 35000
//
chemical_structure: O=c1oc2c(O)c(O)cc3c(=O)oc4c(O)c(O)cc1c4c23
units_label: nM
lt_gt_eq: =
IC50: 790

---

- assay_system: Casein kinase II alpha/beta (Homo sapiens) (UniProt P67870+P68400)
- Sequence (P67870 2-215 limits assumed): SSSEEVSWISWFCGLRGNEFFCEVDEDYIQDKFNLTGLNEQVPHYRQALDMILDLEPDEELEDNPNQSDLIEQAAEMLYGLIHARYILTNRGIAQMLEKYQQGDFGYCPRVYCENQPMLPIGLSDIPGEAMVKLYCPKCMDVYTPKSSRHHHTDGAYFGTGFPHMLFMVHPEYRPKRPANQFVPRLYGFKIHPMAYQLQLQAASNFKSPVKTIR
- Sequence (P68400 whole entry partner): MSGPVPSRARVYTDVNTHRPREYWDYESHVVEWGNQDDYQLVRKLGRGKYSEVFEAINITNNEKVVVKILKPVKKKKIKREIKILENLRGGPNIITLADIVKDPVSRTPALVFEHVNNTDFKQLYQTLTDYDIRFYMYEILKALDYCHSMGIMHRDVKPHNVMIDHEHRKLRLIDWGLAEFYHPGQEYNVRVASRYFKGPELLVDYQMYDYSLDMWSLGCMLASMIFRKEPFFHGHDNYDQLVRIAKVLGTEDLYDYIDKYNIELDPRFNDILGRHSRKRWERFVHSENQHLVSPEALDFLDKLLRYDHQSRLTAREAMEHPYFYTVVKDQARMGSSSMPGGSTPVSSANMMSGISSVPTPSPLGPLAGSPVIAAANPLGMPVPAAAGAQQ
- protocol_description: Inhibition of human CSNK2A1/2B expressed in Escherichia coli BL21(DE3) using RRRDDDSDDD as substrate at 10 uM after 15 mins by scintillation counting

compound: O=C1CCCc2c1c1c(n2Cc2ccccc2)-c2ccccc2C1=O
inhibition: 48%
//
compound: O=C1CC(c2ccccc2)Cc2c1c1c(n2Cc2ccccc2)-c2ccccc2C1=O (racemic)
inhibition: 3%
//
compound: CC1(C)CC(=O)c2c3c(n(Cc4ccccc4)c2C1)-c1ccccc1C3=O
inhibition: 10%
//
compound: COC(=O)C1C(=O)c2c3c(n(Cc4ccccc4)c2CC1C)-c1ccccc1C3=O (stereo not given)
inhibition: 15%
//
compound: O=C1c2ccccc2-c2c1c1c(O)cc(-c3ccccc3)cc1n2Cc1ccccc1
inhibition: 31%
//
compound: O=C1CCCc2c1c1c(n2Cc2ccccn2)-c2ccccc2C1=O
inhibition: 30%
//
compound: O=C1CCCc2c1c1c(n2CCc2ccccc2)-c2ccccc2C1=O
inhibition: 67%
//
compound: COc1ccc(Cn2c3c(c4c2-c2ccccc2C4=O)C(=O)CCC3)cc1
inhibition: 41%
//
compound: O=C1CCCc2c1c1c(n2-c2ccccc2)-c2ccccc2C1=O
inhibition: 60%
//
compound: CC1CC(=O)c2c3c(n(Cc4ccccc4)c2C1)-c1ccccc1C3=O (racemic)
inhibition: 11%

Hello, the source for this data is ChEMBL document CHEMBL1955824, in case you need it.
